The measured values listed here are drawn from patent US20190262469A1.

Form field: MIC (one value per entry).
tested on: E. coli ER2420/pACYC177; experiment: microbe, parasite or virus in culture; type: cell-based; conditions: Escherichia coli, test array/20-well test strips (FIG. 34, 35)

MIC in this record for `NC[C@H]1O[C@H](O[C@H]2[C@H](O)[C@@H](O[C@H]3O[C@H](CO)[C@@H](O)[C@H](N)[C@H]3O)[C@H](N)C[C@@H]2N)[C@H](O)[C@@H](O)[C@@H]1O` : > 256 µg/mL

MIC in this record for `CO[C@H]1/C=C/O[C@@]2(C)Oc3c(C)c(O)c4c(O)c(c(/C=N/N5CCN(C)CC5)c(O)c4c3C2=O)NC(=O)/C(C)=C\C=C\[C@H](C)[C@H](O)[C@@H](C)[C@@H](O)[C@@H](C)[C@H](OC(C)=O)[C@@H]1C` : 8 µg/mL

MIC in this record for `CC1(C)S[C@@H]2[C@H](NC(=O)[C@H](N)c3ccc(O)cc3)C(=O)N2[C@H]1C(=O)O` : > 128 µg/mL

MIC in this record for `O=C(O)c1cn(C2CC2)c2cc(N3CCNCC3)c(F)cc2c1=O` : < 0.031 µg/mL
